Known pIC50 of a selection of compounds
biological target: full-length BTK C481S enzyme (Homo sapiens (Human), UniProt Q06187, C481S); assay: Biochemical kinase assay BTK C481S (IMAP)
Sequence (Q06187 whole entry C481S): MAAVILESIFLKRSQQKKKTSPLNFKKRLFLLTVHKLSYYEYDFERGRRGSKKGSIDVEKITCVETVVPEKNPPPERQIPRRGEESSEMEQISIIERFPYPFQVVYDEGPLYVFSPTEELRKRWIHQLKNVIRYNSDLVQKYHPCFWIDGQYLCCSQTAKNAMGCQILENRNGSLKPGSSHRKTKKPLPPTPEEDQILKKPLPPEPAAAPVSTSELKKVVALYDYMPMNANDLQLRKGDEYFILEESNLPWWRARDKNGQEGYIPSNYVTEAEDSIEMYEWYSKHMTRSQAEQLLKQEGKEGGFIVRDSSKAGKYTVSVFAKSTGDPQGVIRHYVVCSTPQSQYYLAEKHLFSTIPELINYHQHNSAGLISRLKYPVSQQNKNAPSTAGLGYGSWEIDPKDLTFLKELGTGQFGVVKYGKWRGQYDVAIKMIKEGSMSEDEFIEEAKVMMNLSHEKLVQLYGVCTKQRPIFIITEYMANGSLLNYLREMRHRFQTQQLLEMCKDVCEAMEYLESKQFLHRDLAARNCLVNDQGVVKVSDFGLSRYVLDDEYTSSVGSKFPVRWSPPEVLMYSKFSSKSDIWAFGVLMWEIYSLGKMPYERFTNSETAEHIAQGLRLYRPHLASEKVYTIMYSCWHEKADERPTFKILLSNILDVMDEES
pIC50: −log10 of the molar value.

Below are worked cases with known answers.
Compound | Reported Measurement
N#Cc1ccnc(NC(=O)c2ccc(-c3nn4c5c(cnc(N)c35)/C=C/CCOCCC(=O)N[C@@H]3CCC[C@@H]4C3)cc2)c1 [Example 155] | > 8.30
Nc1ncc2c3c1c(-c1ccc(C(=O)Nc4cc(F)ccn4)cc1)nn3[C@@H]1CCC[C@H](C1)NC(=O)CCCCC/C=C/2 [Example 196] | > 8.30

Note: attention shifts to another entry.
input: # input compound: [2H]C1([2H])/C=C/c2cnc(N)c3c(-c4ccc(C(=O)Nc5cc(C(F)(F)F)ccn5)cc4)nn(c23)[C@@H]2CCC[C@H](C2)NC(=O)CCCC1 [Example 137] ; wanted: its pIC50
output: > 8.30
